From: PubChem BioAssay AID1996

Quick reference for solubility kinetic among some molecules
EXPERIMENTAL PARAMETERS: buffer; pH 7.4; 200.0 µM

| MOLECULE | QUANTITY UNIT | CENSOR SYMBOL | solubility kinetic |
| --- | --- | --- | --- |
| CCOc1ccc(NC(=O)/C(C=Nc2ccccc2)=C(\C)O)cc1 | µg/mL | = | 1 |
| O=C(COc1cccc2c1CCNC2=O)Nc1ccc(F)cc1 | µg/mL | > | 47.1 |
| Cc1c(C)n(CCN(C)C)c2ncnc(NCc3ccccc3)c12 | µg/mL | = | 42.9 |
| COC(=O)c1ccc(NC(=O)Nc2ccccc2C)cc1 | µg/mL | = | 4.3 |
| CC(C)Cc1ccc(C(C)C(N)=NCCc2ccccc2)cc1.Cl (stereo not given) | µg/mL | = | 51.3 |
| O=C(O)C1C2CCC(O2)C1C(=O)Nc1ccc(F)c(Cl)c1 (stereo not given) | µg/mL | > | 47.1 |
| COCc1c(C(=O)OCc2c(C)noc2C)oc2ccccc12 | µg/mL | = | 33.2 |
| CC1CN(C2=NC(=O)/C(=C/c3ccncc3)S2)CC(C)O1 (stereo not given) | µg/mL | > | 45.5 |
| CCc1nc2ccccc2c(C(=O)Nc2cccc(C)c2)c1C | µg/mL | = | 2.2 |
| COc1ccccc1C(=O)C1CCCN(Cc2cnc(C)s2)C1 (stereo not given) | µg/mL | > | 49.6 |
